Each recorded value in this set is attributed to patent US9937250B2.

- Test system: MC38 colon carcinoma
- Protocol description: MC38 protection (prophylactic vaccination) model
- Format: in vivo, HHD mice
- Assay setup: immunization days -14 and -7, tumor challenge day 0 (FIG. 9B)
Measured attribute: Protection against HLA-A2neg MC38 tumor challenge

{"Substance": "VEGFR2: VEGFR2-derived peptide 773-781 pulsed onto DC or DC.IL12 (VIAMFFWLL; listed as Homo sapiens)", "Value observed": "minimal protection"}
{"Substance": "PSMA: PSMA-derived peptide 441-450 pulsed onto DC or DC.IL12 (LLQERGVAYI; listed as Homo sapiens)", "Value observed": "minimal protection"}
{"Substance": "VEGFR1: VEGFR1-derived peptide 770-778 pulsed onto DC or DC.IL12 (TLFWLLLTL; listed as Homo sapiens)", "Value observed": "minimal protection"}
